Target: Histamine H1 receptor (Homo sapiens)
Test: Displacement of [3H]-pyrilamine from human cloned H1 receptor expressed in HEK293 cells at 1 uM by scintillation counting analysis
Format: cell-based
Please provide measured inhibition for the entries that follow.
Reply with the number and its unit after it.

Examples from the recorded data:
INSERT INTO assay_data (molecule, value_measured) VALUES
  ('O=C1NC2(CCCc3ccccc32)C(=O)N1CCCCN1CCN(c2cccc(Cl)c2)CC1 (centres undefined)', '102%'),
  ('O=C1NC2(CCc3ccccc32)C(=O)N1CCCCN1CCN(c2cccc(Cl)c2)CC1 (centres undefined)', '101%');

Can you give me inhibition for all of these, one by one?
1. COc1ccccc1N1CCN(CCCCN2C(=O)NC3(CCCc4ccccc43)C2=O)CC1 (centres undefined)
2. COc1ccccc1N1CCN(CCCCN2C(=O)NC3(CCc4ccccc43)C2=O)CC1 (centres undefined)

// result
["99%", "94%"]

###

Please provide measured inhibition for the entries that follow.
Biological target: Muscarinic acetylcholine receptor M3 (Homo sapiens) (UniProt P20309)
Sequence (P20309 whole entry, looked up): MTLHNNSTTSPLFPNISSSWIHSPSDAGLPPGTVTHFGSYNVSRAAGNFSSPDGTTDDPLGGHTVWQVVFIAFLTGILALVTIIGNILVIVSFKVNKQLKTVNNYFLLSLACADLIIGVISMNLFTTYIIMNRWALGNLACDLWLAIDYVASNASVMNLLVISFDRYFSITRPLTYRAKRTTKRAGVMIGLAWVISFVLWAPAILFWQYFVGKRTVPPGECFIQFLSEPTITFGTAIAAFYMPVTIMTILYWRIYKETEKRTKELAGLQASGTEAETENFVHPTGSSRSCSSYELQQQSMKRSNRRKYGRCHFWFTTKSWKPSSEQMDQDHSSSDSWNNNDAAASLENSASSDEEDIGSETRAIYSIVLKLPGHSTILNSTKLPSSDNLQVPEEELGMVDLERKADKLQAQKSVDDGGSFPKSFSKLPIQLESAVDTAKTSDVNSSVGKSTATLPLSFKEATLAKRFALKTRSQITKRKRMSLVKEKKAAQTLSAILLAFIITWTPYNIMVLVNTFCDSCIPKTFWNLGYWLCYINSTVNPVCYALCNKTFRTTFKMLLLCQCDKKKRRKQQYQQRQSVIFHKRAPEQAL
Assay: Displacement of [3H]-4-DAMP from human muscarinic M3 receptor expressed in CHO cells at 1 uM by scintillation counting analysis
Format: cell-based
Give bare numbers, in %.

Examples from the recorded data:
INSERT INTO results (molecule, value_measured) VALUES
  ('O=C1NC2(CCc3ccccc32)C(=O)N1CCCCN1CCN(c2cccc(Cl)c2)CC1 (centres undefined)', 5),
  ('COc1ccccc1N1CCN(CCCCN2C(=O)NC3(CCCc4ccccc43)C2=O)CC1 (centres undefined)', -6),
  ('COc1ccccc1N1CCN(CCCCN2C(=O)NC3(CCc4ccccc43)C2=O)CC1 (centres undefined)', 5);

// switching to the query molecule
In plain terms, O=C1NC2(CCCc3ccccc32)C(=O)N1CCCCN1CCN(c2cccc(Cl)c2)CC1 (centres undefined) has a documented inhibition of 3

###

Please provide measured pKi for the entries that follow.
Biological target: 5-hydroxytryptamine receptor 2A (Rattus norvegicus, UniProt P14842)
Sequence (P14842 whole entry): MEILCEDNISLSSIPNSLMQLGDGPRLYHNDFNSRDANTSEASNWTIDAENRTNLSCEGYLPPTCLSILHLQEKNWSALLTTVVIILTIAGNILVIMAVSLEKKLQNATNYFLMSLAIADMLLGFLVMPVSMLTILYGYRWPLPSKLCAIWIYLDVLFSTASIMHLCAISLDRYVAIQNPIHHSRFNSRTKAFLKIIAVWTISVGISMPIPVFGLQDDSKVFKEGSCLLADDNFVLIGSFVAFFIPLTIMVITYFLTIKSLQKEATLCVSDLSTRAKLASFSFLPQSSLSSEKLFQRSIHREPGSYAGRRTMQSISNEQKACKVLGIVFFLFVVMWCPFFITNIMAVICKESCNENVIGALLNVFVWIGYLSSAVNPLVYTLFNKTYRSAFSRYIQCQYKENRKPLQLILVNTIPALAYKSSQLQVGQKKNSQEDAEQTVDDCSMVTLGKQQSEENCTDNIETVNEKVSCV
Assay: Displacement of [3H]ketanserin from 5-HT2A receptor in rat cortical membrane by liquid scintillation analysis
Type: cell membranes
Answers are plain numbers, as −log10 of the molar value.

INSERT INTO results (compound, value_measured) VALUES
  ('O=C1NC2(CCCc3ccccc32)C(=O)N1CCCCN1CCN(c2cccc(C(F)(F)F)c2)CC1 (centres undefined)', 6.80),
  ('O=C1NC2(CCc3ccccc32)C(=O)N1CCCCN1CCN(c2ccccc2)CC1 (centres undefined)', 6.95),
  ('COc1ccccc1N1CCN(CCCCN2C(=O)NC3(CCc4ccccc43)C2=O)CC1 (centres undefined)', 7.01);

// switching to the query compound
In plain terms, O=C1NC2(CCC(c3ccccc3)CC2)C(=O)N1CCCCN1CCN(c2cccc(C(F)(F)F)c2)CC1 (centres undefined) has a documented pKi of 6.91

The measured values listed here are drawn from ChEMBL document CHEMBL3588770.
